# tgt: guinea pig ileum (GPI), primarily mu-type opiate receptors (Cavia porcellus, UniProt P97266)
# Sequence (P97266 whole entry, looked up): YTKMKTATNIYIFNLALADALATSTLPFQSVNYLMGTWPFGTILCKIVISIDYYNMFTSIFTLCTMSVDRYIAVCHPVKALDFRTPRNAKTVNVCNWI
# assay-notes: guinea pig ileum (GPI) assay: inhibition of electrically induced muscle contractions
# Format: cell-based
# reported-conditions: guinea pig ileum, electrically stimulated contractions; read-out: IC50 (nM) ± S.E.E. GPI
Bridge positions count the residues as written; N and C are the ends. Square brackets hold non-standard residues; d marks the D form. Peptide text beside a SMILES is read from it. dPen = CC(C)(S)[C@@H](N)C(=O)O; dAbu = CC[C@@H](N)C(=O)O; Abu = CC[C@H](N)C(=O)O
assay-readout: IC50 (nM)
The response must be a number in nM with no trailing unit.

{"molecule": "CC[C@@H]1NC(=O)[C@H](NC(=O)[C@@H](N)Cc2ccc(O)cc2)C(C)(C)SSC(C)(C)[C@H](C(=O)O)NC(=O)[C@H](Cc2ccccc2)NC1=O [[L--Abu^3]DPDPE] (H-Y[dPen][Abu]F[dPen]-OH; disulfide 2-5)", "assay-readout": "IC50", "unit-tag": "nM", "measurement": 4870}
{"molecule": "CC[C@H]1NC(=O)[C@H](NC(=O)[C@@H](N)Cc2ccc(O)cc2)C(C)(C)SSC(C)(C)[C@H](C(=O)O)NC(=O)[C@H](Cc2ccccc2)NC1=O [[D--Abu^3]DPDPE] (H-Y[dPen][dAbu]F[dPen]-OH; disulfide 2-5)", "assay-readout": "IC50", "unit-tag": "nM", "measurement": 29900}

Next molecule, IC50 to be filled in.
Read off the recorded IC50 for CC1(C)SSC(C)(C)[C@@H](NC(=O)[C@@H](N)Cc2ccc(O)cc2)C(=O)N[C@@H](CO)C(=O)N[C@@H](Cc2ccccc2)C(=O)N[C@H]1C(=O)O [[L--Ser^3]DPDPE] (H-Y[dPen]SF[dPen]-OH; disulfide 2-5)
39400

Data origin: patent US5326751A
